- experimental.system: rM1M2_HuR (first two RRM domains of human HuR) / 5'-DY681-labeled AU-rich RNA probe (Homo sapiens, UniProt Q15717)
- Sequence (Q15717 20-186 limits assumed): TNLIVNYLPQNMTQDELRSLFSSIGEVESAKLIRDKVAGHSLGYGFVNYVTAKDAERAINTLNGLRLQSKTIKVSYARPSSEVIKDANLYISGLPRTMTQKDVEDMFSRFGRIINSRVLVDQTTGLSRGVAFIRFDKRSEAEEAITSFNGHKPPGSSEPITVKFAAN
- measurement.notes: RNA Electrophoretic Mobility Shift Assay
endpoint.name: IC50 (nM)
Numbers only, in nM.

Q: Answer with the recorded IC50 of O=C1C=Cc2c(c(-c3ccco3)cn2S(=O)(=O)c2ccccc2)C1=O only.
Result: 770
